Reported selectivity ratio values are given for each entry in this list.
- assay.summary: Selectivity index, ratio of CC50 for human MT4 cells to EC50 for HIV1 3B
- Format: toxicity, cell-based
- experimental.setup: read-out: Ratio CC50/EC50

Example entries begin here.
Cc1ncccc1OP(=O)(OC[C@H]1O[C@@H](n2cc(C)c(=O)[nH]c2=O)C[C@@H]1N=[N+]=[N-])Oc1ccccc1 (stereo not given in full) : > 1000
Cc1cn([C@H]2C[C@H](N=[N+]=[N-])[C@@H](COP(=O)(Oc3ccncc3)Oc3cccnc3)O2)c(=O)[nH]c1=O (stereo not given in full) : > 5000
O=c1ccn([C@H]2CC[C@@H](COP(=O)(Oc3ccncc3)Oc3cccnc3)O2)c(=O)[nH]1 (stereo not given in full) : > 7
Cc1cn([C@H]2C[C@H](N=[N+]=[N-])[C@@H](COP(=O)(Oc3ccccc3)Oc3ccncc3)O2)c(=O)[nH]c1=O (stereo not given in full) : > 10000
Cc1cn([C@H]2C[C@H](N=[N+]=[N-])[C@@H](COP(=O)(Oc3ccc(Br)cc3)Oc3cccnc3)O2)c(=O)[nH]c1=O (stereo not given in full) : 3130

Consider the compound Cc1cn([C@H]2C[C@H](N=[N+]=[N-])[C@@H](COP(=O)(Oc3cccnc3)Oc3ccc(Cl)cc3Cl)O2)c(=O)[nH]c1=O (stereo not given in full) and give its measured selectivity ratio.
> 10000

Consider the compound Cc1cn([C@H]2C[C@H](N=[N+]=[N-])[C@@H](COP(=O)(Oc3ccc(Cl)cc3)Oc3cccnc3)O2)c(=O)[nH]c1=O (stereo not given in full) and give its measured selectivity ratio.
> 3330

Consider the compound O=c1ccn([C@H]2CC[C@@H](COP(=O)(Oc3ccccc3)Oc3cccnc3)O2)c(=O)[nH]1 (stereo not given in full) and give its measured selectivity ratio.
> 2

Consider the compound Cc1cn([C@H]2C[C@H](N=[N+]=[N-])[C@@H](COP(=O)(Oc3ccccc3)Oc3cccnc3)O2)c(=O)[nH]c1=O (stereo not given in full) and give its measured selectivity ratio.
> 2000

Consider the compound Cc1cn([C@H]2C[C@H](N=[N+]=[N-])[C@@H](COP(=O)(Oc3ccccc3)Oc3cccnc3Cl)O2)c(=O)[nH]c1=O (stereo not given in full) and give its measured selectivity ratio.
> 3330

Consider the compound `Cc1cn([C@H]2C[C@H](N=[N+]=[N-])[C@@H](COP(=O)(Oc3cccnc3)Oc3cccnc3)O2)c(=O)[nH]c1=O` and give its measured selectivity ratio.
> 10000

Consider the compound `Cc1cn([C@H]2C[C@H](N=[N+]=[N-])[C@@H](CO)O2)c(=O)[nH]c1=O` and give its measured selectivity ratio.
> 6000

Consider the compound `Cc1ncccc1OP(=O)(OC[C@H]1O[C@@H](n2cc(C)c(=O)[nH]c2=O)C[C@@H]1N=[N+]=[N-])Oc1cccnc1C` and give its measured selectivity ratio.
> 5000

Consider the compound `Cc1ccc(OP(=O)(OC[C@H]2O[C@@H](n3cc(C)c(=O)[nH]c3=O)C[C@@H]2N=[N+]=[N-])Oc2ccc(C)nc2)cn1` and give its measured selectivity ratio.
> 2500

Consider the compound Cc1ccc(OP(=O)(OC[C@H]2O[C@@H](n3cc(C)c(=O)[nH]c3=O)C[C@@H]2N=[N+]=[N-])Oc2ccccc2)cn1 (stereo not given in full) and give its measured selectivity ratio.
> 1110

Consider the compound `Nc1ncnc2c1ncn2[C@H]1CC[C@@H](CO)O1` and give its measured selectivity ratio.
> 19

Consider the compound Nc1ncnc2c1ncn2[C@H]1CC[C@@H](COP(=O)(Oc2ccccc2)Oc2cccnc2)O1 (stereo not given in full) and give its measured selectivity ratio.
> 4

Consider the compound Cc1cn([C@H]2C[C@H](N=[N+]=[N-])[C@@H](COP(=O)(Oc3ccccc3)Oc3cncc(Cl)c3)O2)c(=O)[nH]c1=O (stereo not given in full) and give its measured selectivity ratio.
2500

Consider the compound Cc1cn([C@H]2C[C@H](N=[N+]=[N-])[C@@H](COP(=O)(Oc3ccc(C#N)cc3)Oc3cccnc3)O2)c(=O)[nH]c1=O (stereo not given in full) and give its measured selectivity ratio.
2900

Consider the compound O=c1ccn([C@H]2CC[C@@H](COP(=O)(Oc3ccccc3)Oc3ccncc3)O2)c(=O)[nH]1 (stereo not given in full) and give its measured selectivity ratio.
> 33
